Target: Short transient receptor potential channel 4 (Mus musculus) (UniProt Q9QUQ5)
Sequence (Q9QUQ5 whole entry, looked up): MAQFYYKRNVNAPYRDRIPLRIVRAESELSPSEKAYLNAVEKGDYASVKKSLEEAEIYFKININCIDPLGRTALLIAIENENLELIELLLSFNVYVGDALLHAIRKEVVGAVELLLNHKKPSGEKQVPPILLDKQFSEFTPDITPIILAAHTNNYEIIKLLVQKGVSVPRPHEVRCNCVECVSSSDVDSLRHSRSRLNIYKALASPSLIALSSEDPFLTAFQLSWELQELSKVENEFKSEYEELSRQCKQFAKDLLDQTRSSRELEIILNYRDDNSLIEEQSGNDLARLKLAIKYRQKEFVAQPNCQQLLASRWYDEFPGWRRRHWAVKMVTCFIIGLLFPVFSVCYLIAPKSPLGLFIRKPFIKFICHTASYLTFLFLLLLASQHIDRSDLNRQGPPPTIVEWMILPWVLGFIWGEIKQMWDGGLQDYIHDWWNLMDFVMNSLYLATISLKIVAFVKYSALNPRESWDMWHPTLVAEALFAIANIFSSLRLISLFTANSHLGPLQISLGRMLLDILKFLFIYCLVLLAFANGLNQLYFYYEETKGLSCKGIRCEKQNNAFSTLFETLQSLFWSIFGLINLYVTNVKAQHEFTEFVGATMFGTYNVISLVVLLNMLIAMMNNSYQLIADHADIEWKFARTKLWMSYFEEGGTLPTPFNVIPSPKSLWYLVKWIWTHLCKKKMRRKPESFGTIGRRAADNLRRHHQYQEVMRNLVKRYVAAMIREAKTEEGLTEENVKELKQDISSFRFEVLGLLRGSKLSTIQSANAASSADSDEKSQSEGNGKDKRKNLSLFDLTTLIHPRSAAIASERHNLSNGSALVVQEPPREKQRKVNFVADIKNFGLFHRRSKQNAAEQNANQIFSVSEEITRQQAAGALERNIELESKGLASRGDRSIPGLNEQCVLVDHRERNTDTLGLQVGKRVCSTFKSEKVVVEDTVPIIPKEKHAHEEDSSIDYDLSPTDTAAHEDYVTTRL
Assay: blockers of DAMGO-evoked TRPC4 calcium flux – cell-based, Fluo4, HEK293 TRPC4beta/mu-opioid, confirmation (AID 2636)
Conditions: at 10 µM
Active and inactive are the calls of the source.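 How the source made its calls: active means calcium signal cut by more than 3 SD below the full-agonist control yet still positive, in both repeats and the earlier primary screen; inactive means the rest.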
Labels: Y (active), N (inactive)

compound	assaySystem	group
CSCC[C@H](NC(=O)N1CCn2c1nc1ccccc12)C(=O)NCc1ccc(C)cc1	Short transient receptor potential channel 4 (Mus musculus) (UniProt Q9QUQ5)	N
CCN(C(=O)c1cnc(NC(C)C)cc1C(F)(F)F)c1ccc(Cl)cc1Cl	Short transient receptor potential channel 4 (Mus musculus) (UniProt Q9QUQ5)	Y
Oc1cccc(C(=S)N2CCN(Cc3ccccc3)CC2)c1	Short transient receptor potential channel 4 (Mus musculus) (UniProt Q9QUQ5)	N
C=CCSc1nc2c(c(=O)[nH]c(=O)n2C)n1C/C=C(/C)Cl	Short transient receptor potential channel 4 (Mus musculus) (UniProt Q9QUQ5)	Y
Nc1nn2c(C(F)(F)F)cc(=O)[nH]c2c1N=Nc1cccc(F)c1	Short transient receptor potential channel 4 (Mus musculus) (UniProt Q9QUQ5)	N
CCCCn1c(NC(=O)c2ccccc2)nc2ccccc21	Short transient receptor potential channel 4 (Mus musculus) (UniProt Q9QUQ5)	N
Clc1ccc2nc(N3CCNCC3)nc(-c3ccccc3)c2c1	Short transient receptor potential channel 4 (Mus musculus) (UniProt Q9QUQ5)	N
CC(=O)C1=C(O)C(=O)N(Cc2ccccc2)C1c1ccc([N+](=O)[O-])cc1 (configuration not stated)	Short transient receptor potential channel 4 (Mus musculus) (UniProt Q9QUQ5)	Y
CCN(CC)CCCNC(=O)c1cc2c(-c3ccc(Cl)cc3)nn(C)c2s1	Short transient receptor potential channel 4 (Mus musculus) (UniProt Q9QUQ5)	N
CCCCCc1ccc(OCCCC[n+]2ccccc2)c(CCCCC)c1	Short transient receptor potential channel 4 (Mus musculus) (UniProt Q9QUQ5)	N
CCCCCCCCCCCCOC(=O)C[N+](C)(C)C	Short transient receptor potential channel 4 (Mus musculus) (UniProt Q9QUQ5)	N
CCOC(=O)c1c(NC(=O)C2CCCCC2C(=O)O)sc2c1CCCCC2 (configuration not stated)	Short transient receptor potential channel 4 (Mus musculus) (UniProt Q9QUQ5)	Y

* * *

Assay: nonspecific calcium rise without TRPC4 – cell-based, HEK293 mu-opioid receptor line, counter-screen for TRPC4 activator project, confirmation (AID 449723);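 further: counter screen cells carry the mu-opioid receptor alone and lack TRPC4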
Details: HEK293 mu-opioid cells, Fluo-4 calcium fluorescence, at 10 µM
Active and inactive are the calls of the source.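 How the source made its calls: active means hit in primary screen, with calcium signal over 5 SD above buffer well mean in both duplicates; inactive means the rest.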
Possible outcomes: label 1 for active, label 0 for inactive

compound	group
CC1CCN(CC(O)COCCC23CC4CC(CC(C4)C2)C3)CC1 (stereo not drawn)	label 0
O=C1c2ccccc2S(=O)(=O)c2cc(C(=O)N(c3ccccn3)c3ccccn3)ccc21	label 1
C=CCn1c(=N)n(CC(O)COc2ccccc2OC)c2ccccc21 (stereo not drawn)	label 0

* * *

System: TRPC4 beta (transient receptor potential cation channel C4), mouse
Test: TRPC4 cation channel opening, retest – cell-based, Fluo4 calcium, HEK293 TRPC4beta/mu-opioid, duplicates, 10 µM, confirmation (AID 2426)
Details: Fluo4 calcium fluorescence, at 10 µM
Activity calls are given as the source filed them.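 How the source made its calls: active means fluorescence ratio normalized to control raised more than 50% in primary screen plus both repeat runs; inactive means the rest.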
Outcomes: active, inactive

compound	group
CSc1ccc2nnc(-c3cccc(F)c3)n2n1	inactive
Cc1ccc(S(=O)(=O)Nc2ccc(N=Nc3ccc(O)cc3)cc2)cc1	inactive
CC[n+]1c(/C=C/Nc2ccccc2)sc2ccccc21	inactive
Cc1sc2ncnc(NCC(c3ccco3)N3CCCC3)c2c1C (stereo unspecified)	active
CCOC(=O)C1(Cc2ccccc2)CCN(CC2CC=CCC2)CC1 (stereo unspecified)	inactive
NCC(c1ccc(Cl)cc1Cl)c1c[nH]c2ccccc12 (stereo unspecified)	inactive
COC(=O)C1CCN(Cc2cn(-c3ccccc3)nc2-c2ccc3c(c2)OCO3)CC1	inactive
COc1ccc(CCNC(=O)C2CCN(C(=O)c3ccc(C(C)(C)C)cc3)CC2)cc1	inactive
C=CCNC(=S)N/N=C/c1ccc(C(C)(C)C)cc1	inactive
COC(=O)C1=C(C)NC2=C(C(=O)c3ccccc32)C1c1ccc(-c2ccc(C(=O)O)cc2)o1 (stereo unspecified)	inactive
O=C(Nc1cccc(Cl)c1)c1cnn2cccnc12	inactive
Fc1ccc(-n2cc(CNCCc3ccncc3)c(-c3ccccc3Cl)n2)cc1	inactive
CC[C@@H](C)[C@H](CNC)NC[C@@H](Cc1cccc2ccccc12)NCCc1cccc(C(F)(F)F)c1	active
Clc1ccc(COc2ccccc2CNCc2cccnc2)cc1	inactive
NC(=NC1CCCCC1)c1ccc(Cl)cc1	inactive
Cc1oc(-c2ccc(Cl)cc2)nc1CN1CCC(C(=O)N2CCc3ccccc3C2)CC1	inactive
Cc1cc(C(=O)CN2C(=O)C(=O)N(CC(C)C)C2=O)c(C)n1-c1ccccc1F	inactive
CC(=O)N1N=C(c2ccc(Br)cc2)OC1(C)CC(=O)Nc1ccccc1 (stereo unspecified)	inactive
NC(=O)C1CCCN(CCc2ccccc2)C1 (stereo unspecified)	active
COc1ccc(NS(=O)(=O)c2csc(C(N)=O)c2)cc1OC	inactive
Clc1cc(Cl)cc(C2=NC(Cc3ccccc3)CO2)c1 (stereo unspecified)	active
O=C(COc1coc(CN2CCN(c3ccccc3F)CC2)cc1=O)Nc1ccccc1	inactive
CCCCc1nc(N2CCOCC2)c(C#N)c2c1CCCC2	inactive
CCOP(=O)(OCC)c1nc(-c2ccc(Cl)cc2Cl)oc1N1CCCCC1	inactive
COc1ccc2c(c1)sc(N)[n+]2Cc1cc(C)cc2cccnc12	inactive
C(=N\N(Cc1ccccc1)c1ccccc1)/c1cccnc1	inactive
CCn1c(C2CC(=O)N(Cc3ccccc3)C2)nc2ccccc21 (stereo unspecified)	inactive
CC1CC(C)CN(CCCNC(=O)c2ccc3c(c2)N(Cc2ccccc2)C(=O)c2ccccc2S3=O)C1 (stereo unspecified)	active
COc1ccc(CCN(C)C(=O)C2CCCN(C3CCN(Cc4ccccc4)CC3)C2)cc1OC (stereo unspecified)	active
CN(C(=O)COC(=O)c1sc2ccccc2c1Cl)C1CCCCC1	inactive
CCN(CC)CCn1c2ccccc2c2cnc(N)c(C#N)c21	inactive
